target entity: Recombinant Human Enteropeptidase (Homo sapiens (Human), UniProt P98073)
Sequence (P98073 whole entry): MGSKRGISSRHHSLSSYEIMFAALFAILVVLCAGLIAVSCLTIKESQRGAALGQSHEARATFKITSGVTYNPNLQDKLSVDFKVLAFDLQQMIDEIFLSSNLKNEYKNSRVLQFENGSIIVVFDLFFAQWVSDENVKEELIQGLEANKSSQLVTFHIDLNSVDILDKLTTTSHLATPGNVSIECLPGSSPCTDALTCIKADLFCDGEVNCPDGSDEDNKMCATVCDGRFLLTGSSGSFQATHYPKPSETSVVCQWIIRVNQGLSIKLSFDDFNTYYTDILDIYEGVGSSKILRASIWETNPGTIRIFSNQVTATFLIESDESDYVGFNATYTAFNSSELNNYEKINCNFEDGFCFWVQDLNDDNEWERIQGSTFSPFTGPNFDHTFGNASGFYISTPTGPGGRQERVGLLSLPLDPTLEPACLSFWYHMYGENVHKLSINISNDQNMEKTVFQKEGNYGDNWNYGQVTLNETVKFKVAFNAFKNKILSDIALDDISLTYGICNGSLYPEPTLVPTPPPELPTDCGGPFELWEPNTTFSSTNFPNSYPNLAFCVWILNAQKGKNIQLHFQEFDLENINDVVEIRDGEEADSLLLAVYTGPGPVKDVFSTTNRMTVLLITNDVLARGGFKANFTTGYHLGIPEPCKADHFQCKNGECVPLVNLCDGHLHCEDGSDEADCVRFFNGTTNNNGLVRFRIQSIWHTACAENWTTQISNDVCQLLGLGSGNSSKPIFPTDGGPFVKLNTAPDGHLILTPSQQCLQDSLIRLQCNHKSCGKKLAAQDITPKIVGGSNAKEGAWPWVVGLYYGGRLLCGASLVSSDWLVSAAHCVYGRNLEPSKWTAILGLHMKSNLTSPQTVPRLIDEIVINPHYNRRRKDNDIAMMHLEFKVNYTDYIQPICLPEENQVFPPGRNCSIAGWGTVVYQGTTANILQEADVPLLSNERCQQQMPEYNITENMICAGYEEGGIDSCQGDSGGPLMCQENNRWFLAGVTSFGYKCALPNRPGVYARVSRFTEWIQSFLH
assay remarks: Enteropeptidase Inhibition Assay
condition set: substrate Acetyl-Asp-Asp-Asp-Asp-Lys-AFC 30 μM, 30° C., 1 hour; Ki calculated from IC50 using Cheng-Prusoff equation
In this section, each of the molecules is paired with its reported Ki.
A number alone suffices; assume µM.

Look over these answered cases.
>  <molecule>
CCN(CCC(=O)O)c1nc2ccc(C(=O)Oc3ccc(C(=N)N)cc3F)cc2s1

>  <reading unit>
µM

>  <value reported>
0.00055

$$$$
>  <molecule>
COC(=O)CCNc1nc2ccc(C(=O)Oc3ccc(C(=N)N)cc3)cc2s1

>  <reading unit>
µM

>  <value reported>
0.014

$$$$

Entry `CN(CCC(=O)O)c1nc2ccc(C(=O)Oc3ccc(C(=N)N)cc3)cc2s1` ; assay system Recombinant Human Enteropeptidase (Homo sapiens (Human), UniProt P98073); Ki recorded at 0.0043

Entry COC(=O)C1CCN(c2ncc(C(=O)Oc3ccc(C(=N)N)cc3)s2)C1 (centres unmarked) ; assay system Recombinant Human Enteropeptidase (Homo sapiens (Human), UniProt P98073); Ki recorded at 0.019

Entry `CN(CCCC(=O)O)C(=O)C1CCN(c2ncc(C(=O)Oc3ccc(C(=N)N)cc3F)s2)CC1` ; assay system Recombinant Human Enteropeptidase (Homo sapiens (Human), UniProt P98073); Ki recorded at 0.0016

Entry `COC(=O)CCCN(C)c1nc2ccc(C(=O)Oc3ccc(C(=N)N)cc3)cc2s1` ; assay system Recombinant Human Enteropeptidase (Homo sapiens (Human), UniProt P98073); Ki recorded at 0.013

Entry `N=C(N)Nc1ccc(OC(=O)c2cnc(N3CCC(C(=O)O)CC3)s2)cc1` ; assay system Recombinant Human Enteropeptidase (Homo sapiens (Human), UniProt P98073); Ki recorded at 0.22

Entry `COC(=O)C(C)(C)CNc1ncc(C(=O)Oc2ccc(C(=N)N)cc2)s1` ; assay system Recombinant Human Enteropeptidase (Homo sapiens (Human), UniProt P98073); Ki recorded at 0.0089
